Provenance of the data: patent US20180086804A1

Biological target: T1, HLA-DR1 (HLA-DRB1*01:01) (human)
T1 construct: mature; class II HLA molecule purified from homozygous EBV-transformed lymphoblastoid cells with antibody L243
Experiment: competition ELISA vs biotin-HA 306-318;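 further: HLA and competitor incubated 24 to 72 h, maximal signal taken from wells lacking competitor, background from wells lacking HLA molecule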
No end group written: not given here.
Each item that follows carries a reported relative affinity.
Form field (numeric): enter value without unit.

Item under review: PQLNSALVQDLAKAV-NH2 [CCNB1 416-430] . Reported relative affinity?
693

Item under review: AKYLMELTMLDYDMV-NH2 [CCNB1 323-337] . Reported relative affinity?
4
